assayProtocol: Pharmacokinetics of HLJDD components in rat plasma after oral administration of HLJDD (LC-QqQ-MS, non-compartmental)
Format: in vivo, Sprague-Dawley rats
runConditions: male, Sprague-Dawley, rat, in vivo, po, 3.5 g/kg, inflamed rats (group M), oral HLJDD extract, crude material 3.5 g/kg, plasma, n = 6
reportedProperty: AUC(0-t) (µg·h/mL)
The reply should be a number in µg·h/mL, with the unit left off.

Ask | // query AUC(0-t) value for entry COC(=O)C1=CO[C@@H](O[C@@H]2O[C@H](CO)[C@@H](O)[C@H](O)[C@H]2O)[C@@H]2C(CO)=CC[C@H]12 [geniposide]
Reply | 0.638

---

assayProtocol: Pharmacokinetics of HLJDD components in rat plasma after oral administration of HLJDD (LC-QqQ-MS, non-compartmental)
Type: in vivo, Sprague-Dawley rats
runConditions: male, Sprague-Dawley, rat, plasma, po, 3.5 g/kg, inflamed rats (group M), oral HLJDD extract, crude material 3.5 g/kg, plasma, n = 6
Task for the reader: assign each of the following compounds its reported AUC(0-t).
The figure you give is taken to be in ng·h/mL; do not add the unit.

Ask | So what does the record say about AUC(0-t) for O=C(O)[C@H]1O[C@@H](Oc2cc3oc(-c4ccccc4)cc(=O)c3c(O)c2O)[C@H](O)[C@@H](O)[C@@H]1O ?
Reply | 15700

Ask | Requested field: AUC(0-t). Item: COc1c(O)cc(O)c2c(=O)cc(-c3ccccc3)oc12
Reply | 38.7

Ask | AUC(0-t) for COc1c(O)cc2oc(-c3ccccc3)cc(=O)c2c1O ?
Reply | 21.1

Ask | Entry COc1ccc2cc3[n+](cc2c1OC)CCc1cc2c(cc1-3)OCO2 has what AUC(0-t)?
Reply | 2.7

---

assayProtocol: Pharmacokinetics of HLJDD components in rat plasma after oral administration of HLJDD (LC-QqQ-MS, non-compartmental)
Assay type: in vivo, Sprague-Dawley rats
runConditions: male, Sprague-Dawley, rat, in vivo, po, 3.5 g/kg, inflamed rats (group M), oral HLJDD extract, crude material 3.5 g/kg, plasma, n = 6
reportedProperty: MRT last (h)
Write the value in h as a bare number.

Ask | Suppose we examine the compound COC(=O)C1=CO[C@@H](O[C@@H]2O[C@H](CO)[C@@H](O)[C@H](O)[C@H]2O)[C@@H]2C(CO)=CC[C@H]12 [geniposide] ; what MRT last value has been reported?
Reply | 1.9

---

Please go through the items and note down their Tmax1.
assayProtocol: Pharmacokinetics of HLJDD components in rat plasma after oral administration of HLJDD (LC-QqQ-MS, non-compartmental)
Assay type: in vivo, Sprague-Dawley rats
runConditions: normal rats (group B), oral HLJDD extract, crude material 3.5 g/kg, plasma, n = 6
Provide only the numeric value, understood in min.

Ask | Entry COc1c(O[C@@H]2O[C@H](C(=O)O)[C@@H](O)[C@H](O)[C@H]2O)cc(O)c2c(=O)cc(-c3ccccc3)oc12 [wogonoside] : reported Tmax1 = ?
Reply | 6.6

Ask | Can you look up the measured Tmax1 of COc1ccc2c(c1O)-c1c(O)c(OC)cc3c1[C@H](C2)[N+](C)(C)CC3 for me?
Reply | 36

Ask | Return reported Tmax1; argument: COc1c(O)cc(O)c2c(=O)cc(-c3ccccc3)oc12
Reply | 5.4

Ask | Quick check: Tmax1 of COc1c(O[C@@H]2O[C@H](C(=O)O)[C@@H](O)[C@H](O)[C@H]2O)cc2oc(-c3ccccc3)cc(=O)c2c1O [oroxylin A-7-O-glucuronide] ?
Reply | 5.4

Value source: paper PMC4900566
